test target: hURAT1 (Homo sapiens (Human))
Sequence (Q96S37 whole entry): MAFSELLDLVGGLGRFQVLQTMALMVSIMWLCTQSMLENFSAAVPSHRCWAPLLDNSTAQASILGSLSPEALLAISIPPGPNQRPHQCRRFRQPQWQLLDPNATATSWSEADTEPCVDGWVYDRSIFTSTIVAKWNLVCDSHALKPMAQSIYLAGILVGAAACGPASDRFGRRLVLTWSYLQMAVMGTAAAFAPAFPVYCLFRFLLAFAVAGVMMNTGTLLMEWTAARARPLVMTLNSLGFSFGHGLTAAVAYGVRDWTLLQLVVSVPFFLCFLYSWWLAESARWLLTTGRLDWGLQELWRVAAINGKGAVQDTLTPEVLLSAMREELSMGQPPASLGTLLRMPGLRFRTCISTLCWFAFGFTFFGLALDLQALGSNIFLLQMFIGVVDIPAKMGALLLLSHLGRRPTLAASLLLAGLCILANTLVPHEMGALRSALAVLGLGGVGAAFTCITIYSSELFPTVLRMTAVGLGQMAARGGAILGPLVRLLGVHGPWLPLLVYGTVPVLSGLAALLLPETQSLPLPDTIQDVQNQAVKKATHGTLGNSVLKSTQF
protocol details: URAT1 (urate anion transporter) inhibition activity assay: [8-14C] uric acid absorption inhibition in HEK293T cell line stably expressing hURAT1
run parameters: [8-14C] uric acid uptake, HEK293T cells stably expressing hURAT1
From the text: Inhibition ratio (%)=[1−(^14C uptaken by drug well−^14C uptaken by negative well)/(^14C uptaken by buffer well−^14C uptaken by negative well)]×100; Wherein, the negative well was unvaccinated cell line […].
pIC50: −log10 of the molar value.

>  <compound>
N#Cc1cc(-c2ccc(C(=O)O)c(O)c2)c2occc2c1 [Example 1]

>  <pIC50>
6.85

$$$$
>  <compound>
N#Cc1cc(-c2ccc(C(=O)O)c(O)c2)c2ccoc2c1 [Example 21]

>  <pIC50>
6.76

$$$$
>  <compound>
N#Cc1cc(-c2ccc(C(=O)O)c(O)c2)c2[nH]ccc2c1 [Example 7]

>  <pIC50>
5.54

$$$$
>  <compound>
N#Cc1cc(-c2ccc(C(=O)O)c(O)c2)c2ccsc2c1 [Example 31]

>  <pIC50>
7.35

$$$$
>  <compound>
N#Cc1cc2c(c(-c3ccc(C(=O)O)c(O)c3)c1)OCC2 [Example 4]

>  <pIC50>
6.30

$$$$
>  <compound>
N#Cc1cc(-c2ccc(C(=O)O)c(O)c2)c2oc(F)cc2c1 [Example 29]

>  <pIC50>
7.42

$$$$
>  <compound>
N#Cc1cc(-c2ccc(C(=O)O)c(O)c2)c2oc(Cl)cc2c1 [Example 40]

>  <pIC50>
7.52

$$$$

---

protocol details: Pharmacokinetic evaluation in SD rats
Type: in vivo
run parameters: SD, rat, in vivo, po, 5 mg/kg
quantity name: Cmax (ng/mL)

>  <compound>
N#Cc1cc(-c2ccc(C(=O)O)c(O)c2)c2oc(Cl)cc2c1 [Example 40]

>  <unit descriptor>
ng/mL

>  <quantitative result>
3700

$$$$

---

protocol details: Pharmacokinetic evaluation in SD rats
Type: in vivo
run parameters: rat, plasma; SD rats, iv, 1 mg/kg
quantity name: AUC(0-inf) (ng·h/mL)

>  <compound string>
N#Cc1cc(-c2ccc(C(=O)O)c(O)c2)c2oc(Cl)cc2c1

>  <quantitative result>
6020

$$$$
>  <compound string>
N#Cc1cc(-c2ccc(C(=O)O)c(O)c2)c2ccccc2c1

>  <quantitative result>
2210

$$$$
>  <compound string>
N#Cc1cc(-c2ccc(C(=O)O)c(O)c2)c2oc(F)cc2c1

>  <quantitative result>
11300

$$$$
>  <compound string>
N#Cc1cc(-c2ccc(C(=O)O)c(O)c2)c2occc2c1

>  <quantitative result>
7000

$$$$

---

protocol details: Pharmacokinetic evaluation in SD rats
Type: in vivo
run parameters: SD, rat, in vivo, iv, 1 mg/kg

>  <compound>
N#Cc1cc(-c2ccc(C(=O)O)c(O)c2)c2occc2c1 [Example 1]

>  <clearance (mL/min/kg)>
2.4

$$$$

---

protocol details: Pharmacokinetic evaluation in SD rats
Assay type: in vivo
run parameters: rat, plasma; SD rats, iv, 1 mg/kg

>  <compound string>
N#Cc1cc(-c2ccc(C(=O)O)c(O)c2)c2ccccc2c1

>  <unit descriptor>
ng·h/mL

>  <AUC(0-t)>
2170

$$$$

---

protocol details: Pharmacokinetic evaluation in SD rats
Format: in vivo
run parameters: SD, rat, in vivo, iv, 1 mg/kg

>  <compound string>
N#Cc1cc(-c2ccc(C(=O)O)c(O)c2)c2oc(Cl)cc2c1

>  <unit descriptor>
L/kg

>  <Vd>
0.401

$$$$
>  <compound string>
N#Cc1cc(-c2ccc(C(=O)O)c(O)c2)c2oc(F)cc2c1

>  <unit descriptor>
L/kg

>  <Vd>
0.311

$$$$
>  <compound string>
N#Cc1cc(-c2ccc(C(=O)O)c(O)c2)c2occc2c1

>  <unit descriptor>
L/kg

>  <Vd>
0.399

$$$$
